B1: CD2-associated protein, residues 109 to 169; numbered along this chain, Q9Y5K6 (parent)
chain: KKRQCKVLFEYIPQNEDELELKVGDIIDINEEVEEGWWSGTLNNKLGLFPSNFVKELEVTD

# Variants of: B1
# assay.procedure: abundance fitness (aPCA) (normalised: wild type 0, dead -1); higher = more abundant; growth selection in yeast, the domain comes from the species named
# details: Homo sapiens
Label Not met if abundance fitness falls below -0.2; label Met in every other case.

**Q:** Does the variant I26M have recorded abundance fitness that is -0.2 or more?
**A:** Not met

**Q:** Does the variant F53N have recorded abundance fitness that is -0.2 or more?
**A:** Met

**Q:** Does the variant T41M have recorded abundance fitness that is -0.2 or more?
**A:** Met

**Q:** Does the variant N52D have recorded abundance fitness that is -0.2 or more?
**A:** Met

**Q:** Does the variant K55V have recorded abundance fitness that is -0.2 or more?
**A:** Met

**Q:** Does the variant G36I have recorded abundance fitness that is -0.2 or more?
**A:** Not met

**Q:** Does the variant N43H have recorded abundance fitness that is -0.2 or more?
**A:** Met

**Q:** Does the variant V59W have recorded abundance fitness that is -0.2 or more?
**A:** Met

**Q:** Does the variant E32A have recorded abundance fitness that is -0.2 or more?
**A:** Not met

**Q:** Does the variant K45N have recorded abundance fitness that is -0.2 or more?
**A:** Met

**Q:** Does the variant V54S have recorded abundance fitness that is -0.2 or more?
**A:** Not met

**Q:** Does the variant K55P have recorded abundance fitness that is -0.2 or more?
**A:** Not met

**Q:** Does the variant W37Y have recorded abundance fitness that is -0.2 or more?
**A:** Not met

**Q:** Does the variant S51E have recorded abundance fitness that is -0.2 or more?
**A:** Not met

**Q:** Does the variant S39H have recorded abundance fitness that is -0.2 or more?
**A:** Met

**Q:** Does the variant E34F have recorded abundance fitness that is -0.2 or more?
**A:** Not met

**Q:** Does the variant G36P have recorded abundance fitness that is -0.2 or more?
**A:** Not met

**Q:** Does the variant S51V have recorded abundance fitness that is -0.2 or more?
**A:** Met

**Q:** Does the variant D61T have recorded abundance fitness that is -0.2 or more?
**A:** Not met

**Q:** Does the variant K55M have recorded abundance fitness that is -0.2 or more?
**A:** Met

**Q:** Does the variant I26T have recorded abundance fitness that is -0.2 or more?
**A:** Not met

**Q:** Does the variant G47T have recorded abundance fitness that is -0.2 or more?
**A:** Not met

Data provenance is the Human Domainome abundance scans (Beltran et al. 2025).
